Measured Initial Growth (OD @ 24 h) OD, listed per entry.
Test system: recombinant Escherichia coli KO11
experiment_notes: Batch fermentation of E. coli KO11 in 1% CSL medium and glucose with nutrient additives: ethanol production and cell growth
Assay type: cell-based
conditions: 1% CSL+glucose; additive 2 g/L unless indicated

# compound, Initial Growth (OD @ 24 h) OD (OD)
data = [
    ("O=C(O)CCC(=O)O [Succinate, succinate]", 2.69),
    ("N[C@@H](CCC(=O)O)C(=O)O [Glutamate, glutamate]", 2.86),
    ("N[C@@H](CC(=O)O)C(=O)O [Aspartate, aspartate]", 2.86),
    ("CC(=O)C(=O)O [Pyruvate, pyruvate]", 3.46),
    ("C[C@H](N)C(=O)O", 2.08),
    ("O=C(O)CC(O)C(=O)O (stereo not shown) [Malate, malate]", 3.19),
    ("O=C(O)CCC(=O)C(=O)O [a-KG, α-ketoglutarate]", 3.29),
    ("O=C(O)CC(=O)C(=O)O [Oxaloacetate]", 3.29),
    ("O=C(O)CC(O)(CC(=O)O)C(=O)O [Citrate]", 2.43),
    ("O=C(O)/C=C/C(=O)O [Fumarate]", 2.67),
]

###

Measured activity at 2000 µg/mL, listed per entry.
Test system: recombinant Escherichia coli KO11
experiment_notes: Batch fermentation of E. coli KO11 in 1% CSL medium and xylose with nutrient additives: ethanol production and cell growth
Format: cell-based
conditions: Escherichia coli, read-out: Ethanol Production Maximum % Control, 1% CSL+xylose; additive 2 g/L unless indicated

# compound, measurement_target, unit_of_measure, activity at 2000 µg/mL
data = [
    ("O=C(O)CC(O)C(=O)O (stereo not drawn) [Malate, malate]", "recombinant Escherichia coli KO11", "%", 81.2),
    ("CC(=O)C(=O)O [Pyruvate, pyruvate]", "recombinant Escherichia coli KO11", "%", 148),
    ("O=C(O)CC(=O)C(=O)O [Oxaloacetate]", "recombinant Escherichia coli KO11", "%", 78.5),
    ("C[C@H](N)C(=O)O", "recombinant Escherichia coli KO11", "%", 72),
    ("N[C@@H](CC(=O)O)C(=O)O [Aspartate, aspartate]", "recombinant Escherichia coli KO11", "%", 92.7),
    ("O=C(O)CC(O)(CC(=O)O)C(=O)O [Citrate]", "recombinant Escherichia coli KO11", "%", 95.7),
]

###

Tested on: recombinant Escherichia coli KO11
experiment_notes: Batch fermentation of E. coli KO11 in 1% CSL medium and xylose with nutrient additives: ethanol production and cell growth
Type: cell-based
conditions: 1% CSL+xylose; additive 2 g/L unless indicated
property_measured: Maximum Cell Density OD (OD)

# compound, measurement_target, measured_result
measured = [
    ("O=C(O)CC(O)C(=O)O (stereo not drawn) [Malate, malate]", "recombinant Escherichia coli KO11", 2.42),
    ("N[C@@H](CC(=O)O)C(=O)O [Aspartate, aspartate]", "recombinant Escherichia coli KO11", 2.45),
    ("O=C(O)CC(O)(CC(=O)O)C(=O)O [Citrate]", "recombinant Escherichia coli KO11", 2.47),
    ("O=C(O)CC(=O)C(=O)O [Oxaloacetate]", "recombinant Escherichia coli KO11", 2.26),
    ("N[C@@H](CCC(=O)O)C(=O)O [Glutamate, glutamate]", "recombinant Escherichia coli KO11", 5.04),
    ("C[C@H](N)C(=O)O [Alanine, alanine]", "recombinant Escherichia coli KO11", 1.73),
    ("O=C(O)/C=C/C(=O)O [Fumarate]", "recombinant Escherichia coli KO11", 2.60),
    ("O=C(O)CCC(=O)O [Succinate, succinate]", "recombinant Escherichia coli KO11", 3.12),
    ("O=C(O)CC(C(=O)O)C(O)C(=O)O (stereo not drawn) [Isocitrate]", "recombinant Escherichia coli KO11", 3.01),
]
